- system: human CDK4/cyclin D3 (Homo sapiens, UniProt P11802)
- Sequence (P11802 whole entry): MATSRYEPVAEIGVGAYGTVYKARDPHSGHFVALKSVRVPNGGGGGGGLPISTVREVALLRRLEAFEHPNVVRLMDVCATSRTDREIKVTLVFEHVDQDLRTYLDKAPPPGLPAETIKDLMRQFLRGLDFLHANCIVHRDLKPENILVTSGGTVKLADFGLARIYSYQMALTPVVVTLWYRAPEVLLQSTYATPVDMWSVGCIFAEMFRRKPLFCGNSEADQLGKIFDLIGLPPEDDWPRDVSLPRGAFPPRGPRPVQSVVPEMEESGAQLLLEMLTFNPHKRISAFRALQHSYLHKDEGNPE
- Sequence (P30281 1-264 partner limits assumed): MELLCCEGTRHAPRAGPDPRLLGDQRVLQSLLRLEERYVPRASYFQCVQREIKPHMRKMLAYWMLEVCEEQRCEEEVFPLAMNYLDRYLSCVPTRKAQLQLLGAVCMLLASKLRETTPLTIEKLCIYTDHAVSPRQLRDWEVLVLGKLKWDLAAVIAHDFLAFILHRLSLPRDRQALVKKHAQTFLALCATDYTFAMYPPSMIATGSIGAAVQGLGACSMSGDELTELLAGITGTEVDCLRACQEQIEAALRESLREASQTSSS
- measurement.description: Inhibition of CDK4/cyclin D retinoblastoma kinase activity (Ki; % inhibition)
- applied.conditions: apparent Ki, CDK4/cyclin D3, Rb substrate
Counter-ions that a name gives are not always drawn.
Overview of recorded Ki for various compounds

compound	Ki
Nc1nc(Nc2ccc(C(=O)Nc3ccc(CCO)cc3)cc2)sc1C(=O)c1c(F)cccc1F	94 nM
CC(C)[C@H](CN(C)C)NC(=O)c1ccc(Nc2nc(N)c(C(=O)c3c(F)cccc3F)s2)cc1	5 nM
C[C@H](CN(C)C)NC(=O)c1ccc(Nc2nc(N)c(C(=O)c3c(F)cccc3F)s2)cc1 [Example A40, Dihydrochloride]	9 nM
Nc1nc(Nc2ccc(C(=O)NCCNc3ccccc3)cc2)sc1C(=O)c1c(F)cccc1F	8 nM
Nc1nc(Nc2ccc(C(=O)NCCc3ccncc3)cc2)sc1C(=O)c1c(F)cccc1F	26 nM
COc1ccc(C)c(NC(=O)c2ccc(Nc3nc(N)c(C(=O)c4c(F)cccc4F)s3)cc2)c1	105 nM
CCN1CCCC1CNC(=O)c1ccc(Nc2nc(N)c(C(=O)c3c(F)cccc3F)s2)cc1 (stereo not drawn)	14 nM
C[C@H](CN(C)C)NC(=O)c1ccc(Nc2nc(N)c(C(=O)c3ccccc3F)s2)cc1 [Example A66, Trifluoroacetic Acid Salt]	350 nM
CC(=O)N(C)c1ccc(NC(=O)c2ccc(Nc3nc(N)c(C(=O)c4c(F)cccc4F)s3)cc2)cc1	13 nM
CN(CC1CC1)C(C)(C)CNC(=O)c1ccc(Nc2nc(N)c(C(=O)c3c(F)cccc3F)s2)cc1	11 nM
CC1(C)CC(CNC(=O)c2ccc(Nc3nc(N)c(C(=O)c4c(F)cccc4F)s3)cc2)C(C)(C)N1 (stereo not drawn) [Example A56, Dihydrochloride Salt]	8 nM
CN(C)CCN1C(=O)c2ccc(Nc3nc(N)c(C(=O)c4c(F)cccc4F)s3)cc2C1=O	240 nM
CC1(C)CCC(CNC(=O)c2ccc(Nc3nc(N)c(C(=O)c4c(F)cccc4F)s3)cc2)N1 (stereo not drawn) [Example A48, Hydrochloride Salt]	5 nM
Nc1nc(Nc2ccc(C(=O)NCCOCCO)cc2)sc1C(=O)c1c(Cl)cccc1Cl	59 nM
CC(CN(C)C)NC(=O)c1ccc(Nc2nc(N)c(C(=O)c3c(F)cccc3F)s2)cc1 (stereo not drawn) [Example A20, Hydrochloride Salt]	32 nM
CC(C)(CNC(=O)c1ccc(Nc2nc(N)c(C(=O)c3c(F)cccc3F)s2)cc1)N1CCCCC1	9 nM
Nc1nc(Nc2ccc(C(=O)NCCN3CCCC3)cc2)sc1C(=O)c1c(F)cccc1F	6 nM
CN1[C@@H]2CC[C@@H](C2)[C@@H]1CNC(=O)c1ccc(Nc2nc(N)c(C(=O)c3c(F)cccc3F)s2)cc1 (relative stereo)	120 nM

* * *

- system: CDK2/cyclin A (Homo sapiens, UniProt P24941)
- Construct: made in house; host or cells: CDK2: insect cells (baculovirus); cyclin A: E. coli
- measurement.description: Inhibition of CDK2/cyclin A retinoblastoma kinase activity (Ki; % inhibition)
- Format: biochemical
- applied.conditions: 0.03 μM compound
Overview of recorded CDK2 % Inhibition at 0.03 μM for various compounds
measure: CDK2 % Inhibition at 0.03 μM (%)

compound	obs.value
C=C(C)CNC(=O)c1ccc(Nc2nc(N)c(C(=O)c3c(F)cccc3F)s2)cc1	14
Nc1nc(Nc2ccc(C(=O)N(CCO)Cc3ccccc3)cc2)sc1C(=O)c1c(F)cccc1F	13
CCCCN(CCCCO)C(=O)c1ccc(Nc2nc(N)c(C(=O)c3c(F)cccc3F)s2)cc1	−12
Nc1nc(Nc2ccc(C(=O)Nc3cccc(Br)c3)cc2)sc1C(=O)c1c(F)cccc1F	−8
CC(C)C[C@@H](CO)NC(=O)c1ccc(Nc2nc(N)c(C(=O)c3c(F)cccc3F)s2)cc1	−16
CCCN(CCc1ccccn1)C(=O)c1ccc(Nc2nc(N)c(C(=O)c3c(F)cccc3F)s2)cc1	−12
Nc1nc(Nc2ccc(C(=O)NCc3ccc(F)cc3F)cc2)sc1C(=O)c1c(F)cccc1F	13
CC(C)CCNC(=O)c1ccc(Nc2nc(N)c(C(=O)c3c(F)cccc3F)s2)cc1	17
Nc1nc(Nc2ccc(C(=O)Nc3cccc(-c4nnco4)c3)cc2)sc1C(=O)c1c(F)cccc1F	26
Nc1nc(Nc2ccc(C(=O)Nc3ccc(Cl)cc3CO)cc2)sc1C(=O)c1c(F)cccc1F	−11
Nc1nc(Nc2ccc(C(=O)NCCc3cccc(F)c3)cc2)sc1C(=O)c1c(F)cccc1F	−6
CCN(CCc1ccccn1)C(=O)c1ccc(Nc2nc(N)c(C(=O)c3c(F)cccc3F)s2)cc1	10
Nc1nc(Nc2ccc(C(=O)NCC(O)c3ccccc3)cc2)sc1C(=O)c1c(F)cccc1F (stereo not shown)	1
CCCCN(CC)CCNC(=O)c1ccc(Nc2nc(N)c(C(=O)c3c(F)cccc3F)s2)cc1	1
CCCN(CCC#N)C(=O)c1ccc(Nc2nc(N)c(C(=O)c3c(F)cccc3F)s2)cc1	−12
CN(Cc1ccco1)C(=O)c1ccc(Nc2nc(N)c(C(=O)c3c(F)cccc3F)s2)cc1	−3
